The reported measurements were obtained from patent US20230135152A1.

// EC50 lookup, one value per entry
# target_or_test_system: PIKFYVE (Homo sapiens, UniProt Q9Y2I7)
# Sequence (Q9Y2I7 whole entry): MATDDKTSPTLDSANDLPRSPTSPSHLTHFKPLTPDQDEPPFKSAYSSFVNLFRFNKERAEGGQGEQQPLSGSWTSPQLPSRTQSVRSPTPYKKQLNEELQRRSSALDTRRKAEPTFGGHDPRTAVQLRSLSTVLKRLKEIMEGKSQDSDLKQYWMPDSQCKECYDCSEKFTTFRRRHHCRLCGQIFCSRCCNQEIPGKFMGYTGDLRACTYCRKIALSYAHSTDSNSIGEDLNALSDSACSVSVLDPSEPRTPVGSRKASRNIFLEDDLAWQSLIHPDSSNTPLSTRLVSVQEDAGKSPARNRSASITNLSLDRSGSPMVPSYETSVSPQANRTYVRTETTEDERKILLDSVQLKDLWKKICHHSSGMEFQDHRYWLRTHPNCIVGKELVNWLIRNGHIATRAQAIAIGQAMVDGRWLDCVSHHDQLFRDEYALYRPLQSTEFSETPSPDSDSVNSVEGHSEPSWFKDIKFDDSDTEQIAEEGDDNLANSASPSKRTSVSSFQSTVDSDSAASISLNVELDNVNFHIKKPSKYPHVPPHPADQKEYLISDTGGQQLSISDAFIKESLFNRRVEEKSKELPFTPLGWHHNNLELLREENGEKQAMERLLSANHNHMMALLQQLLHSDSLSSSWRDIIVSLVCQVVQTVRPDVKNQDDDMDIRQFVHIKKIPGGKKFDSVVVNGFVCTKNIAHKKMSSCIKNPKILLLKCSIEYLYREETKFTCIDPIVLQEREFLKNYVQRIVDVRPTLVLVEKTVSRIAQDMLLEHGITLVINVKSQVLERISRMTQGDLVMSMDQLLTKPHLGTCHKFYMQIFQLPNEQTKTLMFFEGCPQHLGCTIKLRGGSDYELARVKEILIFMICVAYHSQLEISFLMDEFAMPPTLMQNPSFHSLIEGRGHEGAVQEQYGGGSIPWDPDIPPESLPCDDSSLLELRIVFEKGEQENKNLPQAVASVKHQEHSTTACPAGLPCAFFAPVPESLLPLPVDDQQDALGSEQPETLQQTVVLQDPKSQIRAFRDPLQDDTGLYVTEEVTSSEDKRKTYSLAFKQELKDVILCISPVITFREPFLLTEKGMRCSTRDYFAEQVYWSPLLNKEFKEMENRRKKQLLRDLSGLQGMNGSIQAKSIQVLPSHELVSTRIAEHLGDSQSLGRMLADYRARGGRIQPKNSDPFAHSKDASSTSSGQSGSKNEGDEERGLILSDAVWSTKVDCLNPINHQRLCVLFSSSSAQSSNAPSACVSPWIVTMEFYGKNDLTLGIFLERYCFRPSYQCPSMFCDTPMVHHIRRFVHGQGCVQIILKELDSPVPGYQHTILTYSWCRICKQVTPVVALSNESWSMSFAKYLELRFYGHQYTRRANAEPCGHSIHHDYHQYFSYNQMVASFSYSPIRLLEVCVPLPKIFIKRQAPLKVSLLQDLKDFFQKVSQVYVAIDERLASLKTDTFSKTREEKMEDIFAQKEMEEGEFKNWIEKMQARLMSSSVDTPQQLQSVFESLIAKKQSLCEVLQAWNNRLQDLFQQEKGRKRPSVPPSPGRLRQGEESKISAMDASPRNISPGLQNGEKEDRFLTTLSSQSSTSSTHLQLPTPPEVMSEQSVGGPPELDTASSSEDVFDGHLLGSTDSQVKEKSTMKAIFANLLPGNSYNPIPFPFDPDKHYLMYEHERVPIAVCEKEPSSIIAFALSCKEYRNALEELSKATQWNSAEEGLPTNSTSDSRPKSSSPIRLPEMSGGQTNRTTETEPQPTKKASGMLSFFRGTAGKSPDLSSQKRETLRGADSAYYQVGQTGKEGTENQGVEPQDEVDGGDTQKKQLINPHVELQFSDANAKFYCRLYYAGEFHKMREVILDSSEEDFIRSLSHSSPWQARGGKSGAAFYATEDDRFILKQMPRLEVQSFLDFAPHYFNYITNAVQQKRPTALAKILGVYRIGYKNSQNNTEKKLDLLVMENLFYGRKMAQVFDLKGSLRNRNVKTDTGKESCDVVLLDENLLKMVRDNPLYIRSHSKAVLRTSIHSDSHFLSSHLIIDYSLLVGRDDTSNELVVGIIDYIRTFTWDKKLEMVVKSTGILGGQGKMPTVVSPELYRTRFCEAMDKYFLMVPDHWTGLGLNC
# experiment_notes: Cell-based Pikfyve inhibition activity assay (EEA1 staining, mean vesicle size in BJ fibroblast cells)
# study_conditions: Table 4, 4 hours treatment, 3 μM Apilimod = 100% inhibition

{"chemical_string": "Cn1cc(CCOc2nc(N3CCOCC3)cc(-n3ccc(C(=O)O)n3)n2)cn1", "EC50": "> 5000 nM"}
{"chemical_string": "Cc1cccc(-c2ccn(-c3cc(N4CCOCC4)nc(OCC4COC4)n3)n2)c1", "EC50": "100 to 500 nM"}
{"chemical_string": "Cc1cccc(-c2cc(CN(C)C)n(-c3cc(N4CCOCC4)nc(OCC4(C)COC4)n3)n2)c1", "EC50": "500 to 5000 nM"}
{"chemical_string": "Cc1cc(-c2ccccc2)nn1-c1cc(N2CCOCC2)nc(OCCc2cnn(C)c2)n1", "EC50": "20 to 100 nM"}
